Hey, just so you know, these numbers are from paper PMC4626215.

- Test system: BRIN-BD11 cells
- particulars: 3 μM peptide (highest concentration); mean ± SEM, n = 8
Bridges are numbered along the chain shown (N, C = ends). Where no end group is shown, it is not given here.
endpoint: LDH release (% of control)

Below are worked cases with known answers.
INPUT: Which LDH release (% of control) reading was recorded for the sequence GFSSIFRGVAKFASKGLGKDLAKLGVDLVAKKISKQC [[C31K]Esculentin-2CHa] ?
OUTPUT: 100.2±2.8 % of control

INPUT: So what does the record say about LDH release (% of control) for GFSSIFRGVAKFASKGLGKDLAKLGVDKVACKISKQC (disulfide 31-37 (inferred)) [[L28K]Esculentin-2CHa, substituted analogue of esculentin-2CHa chosen for 28 day study] ?
OUTPUT: 101.8±1.5 % of control

More entries:
INPUT: Dear colleague, I am looking for the recorded LDH release (% of control) of the following sequence: GFSSIFRGVAKFASKGLGKDLAKLGVDLVASKISKQS [[C31S,C37S]Esculentin-2CHa]
OUTPUT: 104.3±3.1 % of control
